- Target Entity: T1, β-catenin (UniProt P35222 1-781, limits assumed)
- T1 construct: also called beta-catenin
- T1 sequence (looked up): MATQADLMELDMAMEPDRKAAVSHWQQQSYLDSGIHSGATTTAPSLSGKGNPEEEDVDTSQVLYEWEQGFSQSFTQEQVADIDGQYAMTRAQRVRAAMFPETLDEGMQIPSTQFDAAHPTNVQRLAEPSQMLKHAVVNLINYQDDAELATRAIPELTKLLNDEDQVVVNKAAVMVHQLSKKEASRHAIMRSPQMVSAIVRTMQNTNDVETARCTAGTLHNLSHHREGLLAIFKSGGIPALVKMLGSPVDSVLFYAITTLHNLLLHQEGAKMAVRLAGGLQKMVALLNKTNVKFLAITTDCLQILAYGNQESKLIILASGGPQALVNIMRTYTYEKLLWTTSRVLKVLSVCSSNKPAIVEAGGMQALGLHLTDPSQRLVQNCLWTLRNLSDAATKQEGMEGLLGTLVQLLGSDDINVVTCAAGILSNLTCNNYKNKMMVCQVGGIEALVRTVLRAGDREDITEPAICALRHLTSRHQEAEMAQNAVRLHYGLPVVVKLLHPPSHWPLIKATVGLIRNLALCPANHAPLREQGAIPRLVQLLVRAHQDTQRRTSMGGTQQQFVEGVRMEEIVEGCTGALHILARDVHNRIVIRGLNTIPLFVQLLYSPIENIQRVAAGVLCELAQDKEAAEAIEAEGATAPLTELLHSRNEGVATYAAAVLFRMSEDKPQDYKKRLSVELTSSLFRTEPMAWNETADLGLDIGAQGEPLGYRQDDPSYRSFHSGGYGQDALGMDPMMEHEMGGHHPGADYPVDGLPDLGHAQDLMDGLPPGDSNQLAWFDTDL
- Assay Protocol: ALPHA Screen (BCL9/β-catenin);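 note: bead proximity readout with the polypeptide linked to donor beads and β-catenin fixed on acceptor beads, their binding bringing the beads close enough to emit signal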
Bridges are numbered along the chain shown (N, C = ends). Where no end group is shown, it is not given here. [ ]: non-standard residue; d: D form. The star is where a group is joined. 2Nal = N[C@@H](Cc1ccc2ccccc2c1)C(=O)O; Hydrocinnamoyl = O=C(CCc1ccccc1)*; NMeR = CN[C@@H](CCCNC(=N)N)C(=O)O; NMeQ = CN[C@@H](CCC(N)=O)C(=O)O; Cba = N[C@@H](CC1CCC1)C(=O)O; S5 = C=CCCC[C@](C)(N)C(=O)O; Ac6c = NC1(C(=O)O)CCCCC1
Measurement Kind: IC50 (nM)
Respond numerically; units are nM and should not be typed.

Recorded IC50 (binder Ac-HRQRSLQTLR[S5]IQR[S5][Ac6c][2Nal]-NH2 (staple 11-15) [SEQ ID NO: 177] ): 211

Recorded IC50 (binder Hydrocinnamoyl-L[NMeQ]TLR[S5]IQR[S5][Cba][2Nal]-NH2 (staple 6-10; also: N-methyl-Gln at 2: filing says both D and L) [SEQ ID NO: 137] ): 8360

Recorded IC50 (binder HRQRSLQTLR[S5]IQ[NMeR][S5][Cba][2Nal] (staple 11-15; not fully specified (residues 3, 7, N-terminus, C-terminus); printed as HR(N-methylQ)RSL(N-methylQ)TLRXIQ(N-methylR)X(CBA)(2-Nal), X/X stapled, (S) α-methyl, N-terminal Ac, C-terminal NH2) [SEQ ID NO: 164] ): 1480

Ref: patent US20200262867A1
